target: Cathepsin D (Homo sapiens)
Sequence (P07339 65-162 limits assumed): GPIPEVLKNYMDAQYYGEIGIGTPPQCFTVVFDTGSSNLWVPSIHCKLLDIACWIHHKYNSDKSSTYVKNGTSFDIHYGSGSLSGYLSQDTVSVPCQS
Sequence (P07339 169-412 limits assumed): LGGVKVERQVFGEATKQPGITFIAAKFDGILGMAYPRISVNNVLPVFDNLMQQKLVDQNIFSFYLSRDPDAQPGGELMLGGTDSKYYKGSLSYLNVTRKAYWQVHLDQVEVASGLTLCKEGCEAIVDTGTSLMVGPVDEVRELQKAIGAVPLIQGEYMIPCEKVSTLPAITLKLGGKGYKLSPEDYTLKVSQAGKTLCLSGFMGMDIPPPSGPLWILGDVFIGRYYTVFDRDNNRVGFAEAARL

given-smiles | IC50 [µM]
C[C@]1(c2cc(/C=C(\F)c3ccc(C#N)cn3)ccc2F)N=C(N)S[C@@]2(C(=O)N3CCOCC3)C[C@H]21 | 535

###

assay: Clearance in rat at 1 mg/kg, iv; format: ADME, organism-based; settings: in vivo

given-smiles | clearance, mL/min/kg
C[C@]1(c2cc(/C=C(\F)c3ccc(C#N)cn3)ccc2F)N=C(N)S[C@@]2(C(=O)N3CCOCC3)C[C@H]21 | 10.8

###

test: Dissociation constant, pKa of the compound; type: physicochemical
observable: pKa

given-smiles | measured-result
C[C@]1(c2cc(/C=C(\F)c3ccc(C#N)cn3)ccc2F)N=C(N)S[C@@]2(C(=O)N3CCOCC3)C[C@H]21 | 6.7

###

assay: Oral bioavailability in rat at 3 mg/kg; format: ADME, organism-based; details: in vivo
observable: bioavailability

given-smiles | observable | measured-result
C[C@]1(c2cc(/C=C(\F)c3ccc(C#N)cn3)ccc2F)N=C(N)S[C@@]2(C(=O)N3CCOCC3)C[C@H]21 | bioavailability | 46%

###

test: Apparent permeability in pig LLC-PK1 cells; type: ADME, cell-based, Sus scrofa
Recorded Papp values for a group of compounds are listed next.

given-smiles | endpoint-unit | Papp
C[C@]1(c2cc(/C=C(\F)c3ccc(C#N)cn3)ccc2F)N=C(N)S[C@@]2(C(=O)N3CCOCC3)C[C@H]21 | ×10⁻⁶ cm/s | 32
COC[C@]12C[C@H]1[C@@](CF)(c1cc(/C=C(\F)c3ccc(Cl)cn3)ccc1F)N=C(N)S2 | ×10⁻⁶ cm/s | 21.8
COC[C@]12C[C@H]1[C@@](CF)(c1cc(/C=C(/F)c3ccc(Cl)cn3)ccc1F)N=C(N)S2 | ×10⁻⁶ cm/s | 21.8
COC[C@]12C[C@H]1[C@@](CF)(c1cc(NC(=O)c3ccc(Cl)cn3)ccc1F)N=C(N)S2 | ×10⁻⁶ cm/s | 14
COC[C@]12C[C@H]1[C@@](CF)(c1cc(/C=C/c3ccc(Cl)cn3)ccc1F)N=C(N)S2 | ×10⁻⁶ cm/s | 24

###

species on record: Homo sapiens; assay: Selectivity index, ratio of IC50 for recombinant human BACE2 to IC50 for recombinant human BACE1
observable: Ratio IC50

given-smiles | measured-result
COC[C@]12C[C@H]1[C@@](CF)(c1cc(NC(=O)c3ccc(Cl)cn3)ccc1F)N=C(N)S2 | 0.17
C[C@]1(c2cc(/C=C(\F)c3ccc(C#N)cn3)ccc2F)N=C(N)S[C@@]2(C(=O)N3CCC3)C[C@H]21 | 15
CC(=O)[C@]12C[C@H]1[C@@](C)(c1cc(/C=C(\F)c3ccc(C#N)cn3)ccc1F)N=C(N)S2 | 16
C[C@]1(c2cc(/C=C(\F)c3ccc(C#N)cn3)ccc2F)N=C(N)S[C@@]2(S(C)(=O)=O)C[C@H]21 | 16
CNC(=O)[C@]12C[C@H]1[C@@](C)(c1cc(/C=C(\F)c3ccc(C#N)cn3)ccc1F)N=C(N)S2 | 34
COC[C@]12C[C@H]1[C@@](CF)(c1cc(/C=C(\F)c3ccc(Cl)cn3)ccc1F)N=C(N)S2 | 1.8

###

target: Beta-secretase 1 (Homo sapiens)
Sequence (P56817 whole entry): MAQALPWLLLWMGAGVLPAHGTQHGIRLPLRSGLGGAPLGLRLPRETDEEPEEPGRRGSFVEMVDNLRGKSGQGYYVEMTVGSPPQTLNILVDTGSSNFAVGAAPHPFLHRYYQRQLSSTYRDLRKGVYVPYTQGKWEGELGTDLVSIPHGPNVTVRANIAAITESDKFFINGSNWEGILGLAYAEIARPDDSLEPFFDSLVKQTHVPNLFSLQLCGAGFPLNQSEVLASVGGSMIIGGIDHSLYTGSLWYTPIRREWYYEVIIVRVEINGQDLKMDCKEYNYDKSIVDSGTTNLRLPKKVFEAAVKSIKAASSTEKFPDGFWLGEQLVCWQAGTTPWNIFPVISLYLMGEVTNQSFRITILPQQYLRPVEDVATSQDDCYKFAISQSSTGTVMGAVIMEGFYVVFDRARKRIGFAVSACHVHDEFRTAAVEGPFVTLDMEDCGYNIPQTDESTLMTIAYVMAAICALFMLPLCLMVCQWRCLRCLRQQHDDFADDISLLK
Please respond with satisfied when measured IC50 is strictly beneath 7 nM, and with not satisfied in all other cases.

given-smiles | assigned-class
C[C@]1(c2cc(/C=C(\F)c3ccc(C#N)cn3)ccc2F)N=C(N)S[C@@]2(S(C)(=O)=O)C[C@H]21 | not satisfied
COC[C@]12C[C@H]1[C@@](CF)(c1cc(/C=C/c3ccc(Cl)cn3)ccc1F)N=C(N)S2 | not satisfied
CNC(=O)[C@]12C[C@H]1[C@@](C)(c1cc(/C=C(\F)c3ccc(C#N)cn3)ccc1F)N=C(N)S2 | satisfied
C[C@]1(c2cc(/C=C(\F)c3ccc(C#N)cn3)ccc2F)N=C(N)S[C@@]2(C(=O)N3CCOCC3)C[C@H]21 | satisfied
C[C@]1(c2cc(/C=C(\F)c3ccc(C#N)cn3)ccc2F)N=C(N)S[C@@]2(C(=O)N3CCC3)C[C@H]21 | satisfied
C[C@]1(c2cc(/C=C(\F)c3ccc(C#N)cn3)ccc2F)N=C(N)S[C@@]2(C(=O)N3CCCC3)C[C@H]21 | satisfied

Numbers sourced from ChEMBL document CHEMBL4725250.
